System: KM12 colon
Assay: NCI tumour cell line growth inhibition, 48 h

{"Compound": "CN(N=O)C(=O)N[C@@H](C=O)[C@@H](O)[C@H](O)[C@H](O)CO", "TGI": "> 750 µM"}
{"Compound": "O=C(Nc1cccc(Oc2nnc(Cl)c3ccccc23)c1)Nc1ccc(Cl)c(C(F)(F)F)c1", "TGI": "2.97 µM"}
{"Compound": "COc1cc(N/N=C/C#N)cc(OC)c1OC", "TGI": "> 10 µM"}
{"Compound": "COc1ccc(/C=C2\\N=C3Sc4c(nc[nH]c4=O)N3C2=O)cc1", "TGI": "> 100 µM"}
{"Compound": "CC(C)(C)CC(C)(C)c1cc2c(O)c(c1)Cc1cc(C(C)(C)CC(C)(C)C)cc(c1O)Cc1cc(C(C)(C)CC(C)(C)C)cc(c1O)Cc1cc(C(C)(C)CC(C)(C)C)cc(c1O)Cc1cc(C(C)(C)CC(C)(C)C)cc(c1O)Cc1cc(C(C)(C)CC(C)(C)C)cc(c1O)C2", "TGI": "> 100 µM"}
{"Compound": "CC(C)(C#N)c1cc(F)cc(C(=O)Nc2cc(Nc3ncccc3-c3ncnc4nc[nH]c34)ccc2F)c1", "TGI": "> 10 µM"}
{"Compound": "O=C1c2ccccc2-c2c1c(-c1ccc([N+](=O)[O-])cc1)nc1ccc3ccccc3c21", "TGI": "> 100 µM"}
{"Compound": "O=C(O)c1ccccc1CC1Cc2ccc3c(c2C1=O)CCC3 (stereo not given)", "TGI": "> 100 µM"}
{"Compound": "c1ccc(-c2cc(C3CO3)c3ccccc3n2)cc1 (stereo not given)", "TGI": "33 µM"}
{"Compound": "CC(=O)OC/C=C/Cn1ncc(=O)[nH]c1=O", "TGI": "> 100 µM"}
{"Compound": "COC(=O)[C@]12CC[C@@H](C)[C@H](C)[C@@H]1C1=CC[C@@H]3[C@@]4(C)C(C=O)=C[C@@](C)(COC(=O)c5ccco5)[C@@H]4C(=O)C[C@@]3(C)[C@]1(C)CC2", "TGI": "> 100 µM"}
{"Compound": "C/C(=N\\N=C(\\[Se])N1CCN(c2ccccn2)CC1)c1ccccn1", "TGI": "18.5 µM"}
{"Compound": "O=P1(c2ccccc2)c2ccccc2CCc2ccccc21", "TGI": "> 100 µM"}
{"Compound": "Oc1ccc2oc3c(O)c4ccccc4cc3c2c1", "TGI": "10.5 µM"}
{"Compound": "Cc1ccc(Nc2n[nH]c(=S)s2)cc1", "TGI": "> 100 µM"}
{"Compound": "O=C1OCCC1C(O)C1c2ccccc2-c2ccccc21 (stereo not given)", "TGI": "> 100 µM"}
{"Compound": "C1=Nc2sc3c(c2C2=NCCN12)CCCC3", "TGI": "31.3 µM"}
{"Compound": "C/C1=C/C2=CC(C)C[C@@H]2C(=O)[C@]2(C)C(=O)CC(C)(C)[C@H]2CC1=O (stereo not given in full)", "TGI": "> 50 µM"}
{"Compound": "O=C(O)c1cc2cc(c1)N=Cc1ccccc1OCc1cccc(n1)COc1ccccc1C=N2", "TGI": "> 25 µM"}
{"Compound": "COC(=O)[C@H]1C[C@H]1NC(=O)C(CC(=O)OCc1ccccc1)NC(=O)OCc1ccccc1 (stereo not given in full)", "TGI": "77.1 µM"}
{"Compound": "Cn1cc(C2=C(c3cccnc3)C(=O)NC2=O)c2ccccc21", "TGI": "> 25 µM"}
{"Compound": "COC(=O)Nc1nc2ccc(S(=O)(=O)n3nnc4ccccc43)cc2[nH]1", "TGI": "> 100 µM"}
{"Compound": "O=P(NC12CC3CC(CC(C3)C1)C2)(N1CC1)N1CC1", "TGI": "> 100 µM"}
{"Compound": "C=CC(C=O)C1(O)CCOC(=O)/C1=C\\N (stereo not given)", "TGI": "> 100 µM"}
{"Compound": "Nc1c(-c2nc3ccccc3o2)sc(=S)n1-c1ccc(Cl)cc1", "TGI": "> 100 µM"}
{"Compound": "CCN1C(=O)NC(=O)C(C)(N2C(=O)c3c(F)c(F)c(F)c(F)c3C2=O)C1=O (stereo not given)", "TGI": "4.56 µM"}
{"Compound": "Cc1ccc(S(=O)(=O)N/N=c2\\c(C)c(C3=NS(=O)(=O)c4cc(S(N)(=O)=O)c(Cl)cc4N3)oc3c(Cl)cc(Cl)cc23)cc1", "TGI": "> 100 µM"}
{"Compound": "COc1ccc2c(c1)C(=O)C(=O)c1cc(O)c(OC)c(OC)c1-2", "TGI": "3.28 µM"}
{"Compound": "CC(C)OC(=O)C1=C(O)c2ccccc2S(=O)(=O)N1", "TGI": "> 100 µM"}
{"Compound": "O=C(O)[C@@H]1CCC(=O)N1C(c1ccc2c(c1)OCO2)c1ccc2c(c1)OCO2", "TGI": "> 100 µM"}
{"Compound": "O=C([O][Hg][CH2]C1COC([CH2][Hg][O]C(=O)c2ccccc2)CO1)c1ccccc1 (stereo not given)", "TGI": "46 µM"}
{"Compound": "Cc1cc(C2=NNC(=O)Cc3cc4c(cc32)OCCO4)cc(C)c1N", "TGI": "> 100 µM"}
{"Compound": "C=CC[P+](c1ccccc1)(c1ccccc1)c1ccccc1", "TGI": "> 100 µM"}
{"Compound": "O=C(c1ccc2ccccc2c1)N(Cc1cccnc1)C(=S)N(Cc1cccnc1)C(=O)c1ccc2ccccc2c1", "TGI": "40 µM"}
{"Compound": "O=C1Nc2ccccc2S/C1=C\\c1cccc(C(F)(F)F)c1", "TGI": "> 100 µM"}
